Below: molecules with pKi recorded for Human sEH (hsEH) (Homo sapiens) in separate published works.
Units for pKi: none; it is -log10 of a concentration expressed in mol/L.

Task: What value of pKi has been recorded for this entry: `Oc1cc(O)cc(-c2cc3ccc(O)cc3o2)c1`
Result: 5.82

Task: # query: pKi of entry `C[C@H]1[C@H](C)CC[C@]2(C(=O)O)CC[C@]3(C)C(=CC[C@@H]4[C@@]5(C)C[C@@H](O)[C@H](O)C(C)(C)[C@@H]5CC[C@]43C)[C@H]12`
Result: 4.46

Task: So what does the record say about pKi for COc1cc2ccc(=O)oc2cc1OC1OC(CO)C(O)C(O)C1O (stereo not drawn) ?
Result: 5.27

Task: Entry `O=c1cc(-c2ccc(O)cc2)oc2cc(O)cc(O)c12` has what pKi?
Result: 4.61

Task: For the molecule shown here, COc1cc(O)cc2c1C(=O)C1(O)c3ccc(O)cc3OC1O2 (stereo not drawn) , give the reported pKi.
Result: 4.68

Task: Consider the molecule `Cc1cccc(CCNC(=O)c2ccc(F)c(CN(C)Cc3cc(C(=O)NCCc4cccc(C)c4)ccc3F)c2)c1` and give its measured pKi.
Result: 8.05
